- target or test system: T1, Mouse PD-1 (monovalent antigen) (mouse, UniProt Q02242 25-167, limits assumed)
- T1 sequence (looked up): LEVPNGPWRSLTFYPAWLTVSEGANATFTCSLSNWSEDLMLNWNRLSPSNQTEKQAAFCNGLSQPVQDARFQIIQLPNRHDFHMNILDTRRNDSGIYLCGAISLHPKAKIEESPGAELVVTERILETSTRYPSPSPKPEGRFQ
- protocol description: ForteBio BLI, IgG on AHQ sensor, monovalent antigen in solution
readout name: Kd (nM)
Express your answer in nM, writing the number without its unit.

## Task Name the recorded Kd for antibody 13405 (antibody, V domains shown) VH: QVQLVQSGAEVKKPGASVKVSCKASGYTFASYYMGWVRQAPGQGLEWMGIINPAGGSTAYAQKFQGRVTMTRDTSTSTVYMELSSLRSEDTAVYYCARHEYGMDVWGQGTTVTVSS VL: DIQMTQSPSTLSASVGDRVTITCRASQSISSWLAWYQQKPGKAPKLLIYEASSLESGVPSRFSGSGSGTEFTLTISSLQPDDFATYYCQQYNSFPPTFGGGTKVEIK .
## Result 7.2
